Tested on: M14 melanoma
assay summary: NCI-60 one-dose screen, 48 h (100 = growth as untreated, 0 = no growth, -100 = all killed)
experimental setup: 10 µM unless noted
Procedure: Growth inhibition of the M14 human tumor cell line is measured as a screen for anti-cancer activity. Cells are grown in 96 well plates and exposed to the test compound for 48 hours. Compounds are tested at a single concentration, which is 10^-5 M for most compounds. The reported endpoint is percent growth (GI% or GIPRCNT), where numbers from 0 - 100% represent growth inhibition, and numbers from -100% - 0 represent cell death. For example, a value of 40 represents 60% growth inhibition. […]
Compounds without any hit were thinned out: in the full panel of roughly 83,000, 20% have a hit.
endpoint label: growth (%)
Give just the numeric value; % need not be written.

Prompt: Reported growth, compound COc1ccc(C2=NN(C(=O)c3cc(OC)c(OC)c(OC)c3)C(c3ccc(C#N)cc3)C2)cc1OC (configuration not stated) : ____
Response: -6.86

Prompt: Consider next the compound Cn1cc(-c2nc(-c3c[nH]c4ncccc34)cs2)c2cccnc21 in the same way.
Response: 42.5

Prompt: Consider next the compound Cc1cc2c(cc1[N+](=O)[O-])NC(CNC(C)C)CC2 (configuration not stated) in the same way.
Response: 92

Prompt: Consider next the compound Nc1ccc2c(c1)/C(=N/O)c1cc([N+](=O)[O-])ccc1-2 in the same way.
Response: 49.4

Prompt: Consider next the compound O=C1/C(=C/c2ccc([N+](=O)[O-])o2)Oc2ccc(Br)cc21 in the same way.
Response: 44.9

Prompt: Consider next the compound Cc1nn(-c2ccc(Cl)cc2)c2nc3c(nc12)C(=O)C(=O)c1ccccc1-3 in the same way.
Response: 75.5

Prompt: Consider next the compound CCC1(c2ccccc2)Oc2ccccc2-n2c(C#N)c3ccccc3c2C1=O (configuration not stated) in the same way.
Response: 94.3

Prompt: Consider next the compound OCc1nnn(-c2ccccc2)c1CO in the same way.
Response: 110

Prompt: Consider next the compound CCCCCCCCCCSc1ncnc2nc[nH]c12 in the same way.
Response: 94

Prompt: Consider next the compound COc1cc(/C=C/c2nnc(-c3cc(-c4ccccc4)n[nH]3)o2)cc(OC)c1OC in the same way.
Response: 127

Prompt: Consider next the compound COc1ccc(-c2cc(Cc3cccs3)c(=O)n(Cn3cncn3)n2)cc1 in the same way.
Response: 107

Prompt: Consider next the compound C=Cc1nn2c(CCC(=O)c3nc4ccccc4[nH]3)nnc2s1 in the same way.
Response: 92.9

Prompt: Consider next the compound O=c1ccn(C2OC(CO)C(O)C2F)c(=O)[nH]1 (configuration not stated) in the same way.
Response: 108

Prompt: Consider next the compound CC1=CSC2=NCCN12 in the same way.
Response: 108

Prompt: Consider next the compound Nc1cc(Cl)c(S(N)(=O)=O)cc1S(N)(=O)=O in the same way.
Response: 108

Prompt: Consider next the compound CCS(=O)(=O)OCCCl in the same way.
Response: 116

Prompt: Consider next the compound CCSc1nnc2n(Cc3ccccc3)c(=O)c3c(C)c(C(N)=O)sc3n12 in the same way.
Response: 112

Prompt: Consider next the compound Cc1cc(NC(=O)c2ccc(N)cc2)ccc1N=Nc1ccc2c(O)c(N=Nc3ccc(Cl)c(S(=O)(=O)O)c3)c(S(=O)(=O)O)cc2c1 in the same way.
Response: 92.5

Prompt: Consider next the compound Cc1ccsc1/C=C/C1=NCCCN1C in the same way.
Response: 100

Prompt: Consider next the compound CCC1=C(c2ccc(OC)cc2)C(C)(C)Oc2c1ccc(O)c2CN1CCCC1 in the same way.
Response: -75.8

Prompt: Consider next the compound COc1cc2c(cc1OCCCCCn1c(-c3ccc(OCc4ccccc4)cc3)nc3cc(N4CCOCC4)ccc31)N=C[C@@H]1CCCN1C2=O in the same way.
Response: 9.2

Prompt: Consider next the compound O=C(/C=C/c1cc2ccccc2[nH]c1=O)c1ccc(Cl)cc1 in the same way.
Response: 44.7
